# credit: PubChem BioAssay

Assay: OD615 S. cerevisiae growth inhibition, permissive medium, pilot counter-assay, permissive growth control for S. cerevisiae lifespan shortening project (AID 705)
Conditions: OD615, 24 h, at 10 µM, stronger effect = higher value
Calls of active or inactive are those of the source.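 Rule for the calls: active = growth inhibition above 25% in both replicates, a cutoff set 3 SD above the mean; inconclusive = above 25% in only one replicate; inactive = the rest.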
attributeMeasured: growth inhibition

                                   molecule  attributemeasured     recordedresult
0  CCOC(=O)N1CCN(C(=O)c2cc3c(-c4ccc(Cl)cc4)nn(C)c3s2)CC1  growth inhibition  -5.13% (inactive)
1  CCCCC(CC)CNC(=O)CCS(=O)(=O)c1cccc2nsnc12 (stereo unspecified)  growth inhibition  -14.8% (inactive)
2  O=C(CCS(=O)(=O)c1cccc2nonc12)N1CCCc2ccccc21  growth inhibition  -10.4% (inactive)
3      O=C(CSc1nc2ccccc2c(=O)[nH]1)N1CCCCC1  growth inhibition  -16.2% (inactive)
4  CC(c1ccccc1)N1CNc2c(c(=O)n(C)c(=O)n2C)C1 (stereo unspecified)  growth inhibition  -8.04% (inactive)

Hi team, please reply with growth inhibition for each item in this list.
1. COC(=O)c1cc(OC)c(OC)cc1NC(=O)C1CCCO1 (stereo unspecified)
2. Cc1nc2sc(C(c3cccs3)N3CCN(Cc4ccccc4)CC3)c(O)n2n1 (stereo unspecified)
3. Cc1onc(-c2ccccc2Cl)c1C(=O)NCC1CCCO1 (stereo unspecified)

OUT:
-6.67% (inactive)
-7.44% (inactive)
-0.6% (inactive)
